# Sampling time/dissociation percent (%) 15 s listing for each entry below
CONDITION DESCRIPTION: formula F derivatives; rat plasma, 37° C., sampling time 15 s
Output spec: scalar in %, unitless text.

> print(dat)
                                   compound  measured.number
1  CC(C)c1cccc(C(C)C)c1OC(=O)C(F)CC(=O)[O-].[Na+] (stereo not drawn) [Compound F7]             71.3
2  CC(C)c1cccc(C(C)C)c1OC(=O)C(F)C(=O)[O-].[Na+] (stereo not drawn) [Compound F8]             69.3

We now examine a further compound.
Lookup: Form field: reported Sampling time/dissociation percent (%) 15 s of CC(C)c1cccc(C(C)C)c1OC(=O)C(F)CCC(=O)[O-].[Na+] (racemic) [Compound F1]
Found: 70.2

###

System: SD rats
METHOD NOTES: ED50 and LD50 test concerning anesthesia (sequential method) in rats
Type: in vivo
CONDITION DESCRIPTION: caudal vein injection, 3 mg/ml solution
Below, each of the molecules is paired with its reported Rat LD50 value.
Use mg/kg as the unit, but write only the number.

> print(dat)
                                   molecule  assay.target  measured.number
1  CC(C)c1cccc(C(C)C)c1OC(=O)[C@H](F)CCN(C)C.Cl [Compound E2]       SD rats             37.5

Lookup: Request - read-out Rat LD50 | tested on SD rats | molecule CC(C)c1cccc(C(C)C)c1OC(=O)C(F)CC(=O)[O-].[Na+] (stereo not drawn) [Compound F7]
Found: 47.4

Lookup: Entry to check: CC(C)c1cccc(C(C)C)c1O [Propofol, reference compound]
Found: 21.5

All figures here come from patent US10239851B2.
